Measured values drawn from patent US20100256333A1 for this set.

assay: Prolyl amide trans/cis ratio by 1H-NMR integration (peptide mimics 3-8); type: physicochemical; conditions: in water, 500 MHz NMR at 25 °C, ±3%
Examples of molecules with documented cis % isomer follow.

{"molecule": "COC(=O)[C@@H]1[C@@H](O)CCN1C(C)=O [Compound 5, reference compound]", "unit abbrev": "%", "cis % isomer": 17}
{"molecule": "COC(=O)C1N(C(C)=O)C(CO)CC12OC(CO)C(O)C(O)C2O (stereo not shown) [Compound 4]", "unit abbrev": "%", "cis % isomer": 53}
{"molecule": "COC(=O)[C@@H]1CCCN1C(C)=O [Compound 6, N-acetyl-L-proline methyl ester, reference compound]", "unit abbrev": "%", "cis % isomer": 14}
{"molecule": "COC(=O)C1N(C(C)=O)C(CO)CC12OC(CO)C(O)C(O)C2O (stereo not shown) [Compound 3]", "unit abbrev": "%", "cis % isomer": 23}

----------
Examples of compounds with documented ΔS° of isomerization follow.
assay: Thermodynamics of isomerization, Kt/c versus temperature, Van't Hoff plots; assay type: physicochemical; conditions: Van't Hoff plots, D2O
measurement name: ΔS° of isomerization

{"compound": "COC(=O)[C@@H]1CCCN1C(C)=O [Compound 6, N-acetyl-L-proline methyl ester, reference compound]", "result": "−0.71 ± 0.12 cal/mol•K"}
{"compound": "COC(=O)C1N(C(C)=O)C(CO)CC12OC(CO)C(O)C(O)C2O (stereo not shown) [Compound 4]", "result": "1.05 ± 0.16 cal/mol•K"}
{"compound": "COC(=O)[C@@H]1[C@@H](O)CCN1C(C)=O [Compound 5, reference compound]", "result": "−0.48 ± 0.08 cal/mol•K"}
{"compound": "COC(=O)C1N(C(C)=O)C(CO)CC12OC(CO)C(O)C(O)C2O (stereo not shown) [Compound 3]", "result": "−2.93 ± 0.20 cal/mol•K"}

----------
test: Prolyl amide trans/cis ratio by 1H-NMR integration (peptide mimics 3-8); type: physicochemical; settings: in water, 500 MHz NMR at 25 °C, ±0.04

{"molecule": "COC(=O)[C@@H]1[C@@H](O)CCN1C(C)=O [Compound 5, reference compound]", "Trans/cis ratio Kt/c": 4.88}
{"molecule": "COC(=O)[C@@H]1CCCN1C(C)=O [Compound 6, N-acetyl-L-proline methyl ester, reference compound]", "Trans/cis ratio Kt/c": 6.14}
{"molecule": "COC(=O)C1N(C(C)=O)C(CO)CC12OC(CO)C(O)C(O)C2O (stereo not shown) [Compound 4]", "Trans/cis ratio Kt/c": 0.88}
{"molecule": "COC(=O)C1N(C(C)=O)C(CO)CC12OC(CO)C(O)C(O)C2O (stereo not shown) [Compound 3]", "Trans/cis ratio Kt/c": 3.35}

----------
assay: Cis population and equilibrium constant Kc/t of GlcTProLysC peptide mimics by 1H NMR, pH effect; assay type: physicochemical; details: in D2O, ±3%; HCl salt

{"compound": "CNC(=O)C1N(C(C)=O)C(CO)CC12OC(CN)C(O)C(O)C2O.Cl (stereo not shown) [Compound 3-24]", "Cis population [%]": 75}
{"compound": "COC(=O)C1N(C(C)=O)C(CO)CC12OC(CN)C(O)C(O)C2O.Cl (stereo not shown) [Compound 3-22]", "Cis population [%]": 55}
{"compound": "COC(=O)C1N(C(C)=O)C(CO)CC12OC(CN)C(O)C(O)C2O.Cl (stereo not shown) [Compound 3-23]", "Cis population [%]": 19}
{"compound": "CNC(=O)C1N(C(C)=O)C(CO)CC12OC(CN)C(O)C(O)C2O.Cl (stereo not shown) [Compound 3-25]", "Cis population [%]": 36}

----------
Examples of molecules with documented Free energy of activation ΔG‡ cis to trans follow.
assay: Kinetics of prolyl amide cis/trans isomerization by 1H-NMR inversion-magnetization transfer, Eyring plots; format: physicochemical; conditions: at 298K, D2O
measurement name: Free energy of activation ΔG‡ cis to trans (kcal/mol)

{"molecule": "COC(=O)[C@@H]1CCCN1C(C)=O [Compound 6, N-acetyl-L-proline methyl ester, reference compound]", "numeric readout": 20.5}
{"molecule": "COC(=O)C1N(C(C)=O)C(CO)CC12OC(CO)C(O)C(O)C2O (stereo not shown) [Compound 3]", "numeric readout": 22.8}
{"molecule": "COC(=O)C1N(C(C)=O)C(CO)CC12OC(CO)C(O)C(O)C2O (stereo not shown) [Compound 4]", "numeric readout": 19.1}
{"molecule": "COC(=O)[C@@H]1[C@@H](O)CCN1C(C)=O [Compound 5, reference compound]", "numeric readout": 20.5}

----------
assay: Thermodynamics of isomerization, Kt/c versus temperature, Van't Hoff plots; type: physicochemical; details: 298K, D2O; in kcal/mol

{"compound": "COC(=O)[C@@H]1[C@@H](O)CCN1C(C)=O [Compound 5, reference compound]", "ΔG° (298K) of isomerization": "−0.95"}
{"compound": "COC(=O)[C@@H]1CCCN1C(C)=O [Compound 6, N-acetyl-L-proline methyl ester, reference compound]", "ΔG° (298K) of isomerization": "−1.01"}
{"compound": "COC(=O)C1N(C(C)=O)C(CO)CC12OC(CO)C(O)C(O)C2O (stereo not shown) [Compound 4]", "ΔG° (298K) of isomerization": 0.19}
{"compound": "COC(=O)C1N(C(C)=O)C(CO)CC12OC(CO)C(O)C(O)C2O (stereo not shown) [Compound 3]", "ΔG° (298K) of isomerization": "−0.80"}

----------
assay: Cis population and equilibrium constant Kc/t of GlcTProLysC peptide mimics by 1H NMR, pH effect; type: physicochemical; conditions: in D2O, ±0.04; HCl salt

{"compound": "CNC(=O)C1N(C(C)=O)C(CO)CC12OC(CN)C(O)C(O)C2O.Cl (stereo not shown) [Compound 3-24]", "Equilibrium constant Kc/t": 3.03}
{"compound": "COC(=O)C1N(C(C)=O)C(CO)CC12OC(CN)C(O)C(O)C2O.Cl (stereo not shown) [Compound 3-22]", "Equilibrium constant Kc/t": 1.22}
{"compound": "COC(=O)C1N(C(C)=O)C(CO)CC12OC(CN)C(O)C(O)C2O.Cl (stereo not shown) [Compound 3-23]", "Equilibrium constant Kc/t": 0.23}
{"compound": "CNC(=O)C1N(C(C)=O)C(CO)CC12OC(CN)C(O)C(O)C2O.Cl (stereo not shown) [Compound 3-25]", "Equilibrium constant Kc/t": 0.56}

----------
test: Thermodynamics of isomerization, Kt/c versus temperature, Van't Hoff plots; type: physicochemical; settings: Van't Hoff plots, D2O

{"compound": "COC(=O)[C@@H]1[C@@H](O)CCN1C(C)=O [Compound 5, reference compound]", "ΔH° of isomerization (kcal/mol)": -1.09}
{"compound": "COC(=O)C1N(C(C)=O)C(CO)CC12OC(CO)C(O)C(O)C2O (stereo not shown) [Compound 4]", "ΔH° of isomerization (kcal/mol)": 0.50}
{"compound": "COC(=O)C1N(C(C)=O)C(CO)CC12OC(CO)C(O)C(O)C2O (stereo not shown) [Compound 3]", "ΔH° of isomerization (kcal/mol)": -1.67}
{"compound": "COC(=O)[C@@H]1CCCN1C(C)=O [Compound 6, N-acetyl-L-proline methyl ester, reference compound]", "ΔH° of isomerization (kcal/mol)": -1.21}
